solubility values for the compounds below.
EXPERIMENT: Relative solubilities in water, HCl and methanol
Format: physicochemical
REPORTED CONDITIONS: Solvent: Water

COMPOUND: CCCC1(CCC)CCC2(CCN(CCCN(CC)CC)C2)CC1.Cl.Cl [Compound B, reference compound]
solubility: > 100 mg/mL

COMPOUND: CCCC1(CCC)CCC2(CCN(CCCN(CC)CC)C2)CC1.O=C(O)/C=C\C(=O)O.O=C(O)/C=C\C(=O)O
solubility: > 100 mg/mL
